Each entry below carries its recorded cytotoxicity at 10 µM.
# assay_explanation: Toxicity liver stage against HepG2, at 10uM
# Assay type: cell-based
# Parameters: test concentration 10 uM, cell line HepG2-A16-CD81EGFP
# test_settings: human, HepG2-A16-CD81EGFP cells; read-out: INHIBITION
Supply the numeric figure in %, leaving out any unit text.

Consider the worked cases shown below.
1) Cc1noc(C)c1CSc1nc(=O)ccn1C(C)C
5.95
2) Cc1c(F)cccc1NC(=O)N(C(C)CS(C)(=O)=O)C1CC1 (configuration not stated)
8.29
3) CC1CN(c2ccc(CNC(=O)NCCn3ccnc3)cn2)CCO1 (configuration not stated)
8.4

Fill in: cytotoxicity at 10 µM of COCCN1C[C@@H]2CN(Cc3ccc(F)cc3)C[C@@H]2C1=O is ___
-0.744

Next record, please: O=C(CCNCc1cccc(O)c1)N1CCc2sccc2C1
16

What about this compound? CSCC1CCCN1CCc1ccncc1 (configuration not stated)
0.684

Another compound to look at: COCC(=O)NCc1cccc(Br)c1
-4.2

// query: O=C(CNCCn1cccn1)NCC1(c2ccccc2)CCOCC1
-8.27

Check Cc1noc(C(C)C)c1C(=O)NCCN1CCCCCC1=O too.
-9.07

// query: Cc1cccnc1CN1CCOC(Cc2cccc3ccccc23)C1 (configuration not stated)
-2.43

Also check O=C(c1ccc(F)cc1F)N1C[C@@H]2CC[C@H]1CN(Cc1ccccc1)C2
5.04

Can you check CC(=O)NC(Cc1c[nH]c2cc(F)ccc12)C(=O)Nc1nonc1C (configuration not stated) next?
-9.93

Next: COc1ccc(S(=O)(=O)NC(=O)c2c(C)noc2C(C)C)cc1C
0.495

Same question, COC(=O)CCNC(=O)c1cccc(C(=O)N(C)c2ccccc2)c1 this time
-2.69

What about this compound? Cc1nc(CN2CCCC(N(C)Cc3cnn(C)c3)C2)no1 (configuration not stated)
-7.72

Input O=C(c1ccc(Cl)cc1F)N1CCC(Cn2cc(CO)nn2)CC1
-1.36
